- Test system: DU-145 prostate
- Test: NCI-60 one-dose screen, 48 h
- Run conditions: 10 µM unless noted
About 83,000 compounds went through this panel and 20% of them were active in at least one assay; those are over-represented in the sample as a whole. The source made the active and inactive calls. The calls were made as follows: active = growth percent below 10; inactive = the rest.
Labels: active, inactive

Molecule	Label
O=[N+]([O-])/C(=C/C=C/c1ccccc1)c1ccccc1	inactive
Cc1cccc(Cl)c1NC(=O)c1ccc2nc(NC(=O)NCCN(C)C)sc2c1	inactive
CCN1CCN(c2cc(C(=O)Nc3nc(-c4cc(OC)c(OC)c(OC)c4)cs3)cc(C(F)(F)F)c2)CC1	inactive
O=C1NC(=O)c2c1c1c3ccccc3ccc1c1[nH]c3ccc(Br)cc3c21	inactive
CCN(CC)CCSc1nc(-c2ccccc2)c(C#N)c(=O)[nH]1	inactive
COc1cc(-c2nc(SCCC(C)C)nc(Nc3ccccc3Cl)c2C#N)cc(OC)c1OC	inactive
CCCc1cc(NC)nc(S(=O)(=O)CC)n1	inactive
C=CCc1c2c(c(OC)c3ccoc13)C(=O)/C(=C/c1ccccc1OC)O2	inactive
CO/N=C(/C)c1ccc(NC(=O)CSc2nnc(-c3ccncc3)n2-c2ccccc2)cc1	inactive
COc1cc(CNC(=O)/C=C/C=C/c2ccc3c(c2)OCO3)ccc1OCc1cn(-c2ccc(C)c(C)c2)nn1	inactive
O=C(CSc1nc2ccc([N+](=O)[O-])cc2[nH]1)Nc1ccc(F)cc1	inactive
O=C(Nn1c2c(sc1=Nc1ccccc1)C(=O)c1ccccc1C2=O)c1cc2ccc1CCc1ccc(cc1)CC2	inactive
CCn1cc(C(=O)N/N=C/c2cccs2)c(=O)c2cc(F)c(N3CCNC(C)C3)c(F)c21 (stereo not given)	inactive
COCCn1c(-c2csc(-c3cn(C)c4ccc(OC)cc34)n2)cc2cccnc21	inactive
Cc1ccc(-c2nc(/C=C3/C(=O)Nc4ccccc43)c3ccccn23)cc1	active
O=C(Nc1ccc(-c2nc(N3CCOCC3)c3cccn3n2)cc1)Nc1cccnc1	active
Cc1nc(-c2ccccc2)cc2c(O)c(C(=O)NN)[nH]c(=O)c12	inactive
O=C(/C=C/c1ccc(Cl)cc1)c1cccc(Nc2nc(Nc3ccccc3)nc(Nc3ccccc3)n2)c1	inactive
COc1cc(OC)cc(C2=C3CC[C@@H]4[C@H](CC[C@]5(C)C(=O)CC[C@@H]45)C3=CC3C(O)c4cccnc4N4C(=O)COC234)c1 (stereo not given in full)	inactive
COc1ccc(-c2nc(SCC(C)C)nc(N/N=C\c3ccc(F)cc3)c2C#N)cc1	inactive
